- Test system: SK-HEP-1 cells
- Assay overview: Sorafenib dose response viability with bi-cistronic ZF9-MQ1_ZF3-KRAB (CellTiter-GLO)
- Format: cell-based
- Recorded conditions: Homo sapiens, SK-HEP1, 72 h, SKHEP-1, 72-hour, bi-cistronic ZF9-MQ1_ZF3-KRAB 0.1 μg/ml
Readout kind: pIC50
Numbers only, as −log10 of the molar value.

## Task // lookup pIC50 for `CNC(=O)c1cc(Oc2ccc(NC(=O)Nc3ccc(Cl)c(C(F)(F)F)c3)cc2)ccn1`
## Result 4.91

###

- Test system: SKHEP1 and Hep 3B cells
- Assay overview: IC50 of sorafenib or JQ1 in combination with bi-cistronic ZF9-MQ1_ZF3-KRAB
- Assay type: cell-based, human
- Recorded conditions: Homo sapiens, Hep3B, Hep 3B; sorafenib without bi-cistronic ZF9-MQ1_ZF3-KRAB
Readout kind: IC50

## Task // lookup IC50 for `CNC(=O)c1cc(Oc2ccc(NC(=O)Nc3ccc(Cl)c(C(F)(F)F)c3)cc2)ccn1`
## Result 4.4 µM

###

- Tested on: SK-HEP-1 cells
- Assay overview: JQ1 dose response viability with bi-cistronic ZF9-MQ1_ZF3-KRAB (CellTiter-GLO)
- Assay type: cell-based
- Recorded conditions: Homo sapiens, SK-HEP1, 72 h, SKHEP-1, 72-hour, bi-cistronic ZF9-MQ1_ZF3-KRAB 0.1 μg/ml
Readout kind: pIC50
Give bare numbers, as −log10 of the molar value.

## Task // lookup pIC50 for `Cc1sc2c(c1C)C(c1ccc(Cl)cc1)=N[C@@H](CC(=O)OC(C)(C)C)c1nnc(C)n1-2`
## Result 5.72

###

- Tested on: Hep 3B cells
- Assay overview: Sorafenib dose response viability with bi-cistronic ZF9-MQ1_ZF3-KRAB (CellTiter-GLO)
- Type: cell-based
- Recorded conditions: Homo sapiens, Hep3B, 72 h, bi-cistronic ZF9-MQ1_ZF3-KRAB 0.1 μg/ml
Readout kind: IC50 (µM)
Answers are plain numbers, in µM.

## Task // lookup IC50 for CNC(=O)c1cc(Oc2ccc(NC(=O)Nc3ccc(Cl)c(C(F)(F)F)c3)cc2)ccn1 [sorafenib]
## Result 4.25
